Target: Trehalase (Bombyx mori)
Sequence (P32358 whole entry): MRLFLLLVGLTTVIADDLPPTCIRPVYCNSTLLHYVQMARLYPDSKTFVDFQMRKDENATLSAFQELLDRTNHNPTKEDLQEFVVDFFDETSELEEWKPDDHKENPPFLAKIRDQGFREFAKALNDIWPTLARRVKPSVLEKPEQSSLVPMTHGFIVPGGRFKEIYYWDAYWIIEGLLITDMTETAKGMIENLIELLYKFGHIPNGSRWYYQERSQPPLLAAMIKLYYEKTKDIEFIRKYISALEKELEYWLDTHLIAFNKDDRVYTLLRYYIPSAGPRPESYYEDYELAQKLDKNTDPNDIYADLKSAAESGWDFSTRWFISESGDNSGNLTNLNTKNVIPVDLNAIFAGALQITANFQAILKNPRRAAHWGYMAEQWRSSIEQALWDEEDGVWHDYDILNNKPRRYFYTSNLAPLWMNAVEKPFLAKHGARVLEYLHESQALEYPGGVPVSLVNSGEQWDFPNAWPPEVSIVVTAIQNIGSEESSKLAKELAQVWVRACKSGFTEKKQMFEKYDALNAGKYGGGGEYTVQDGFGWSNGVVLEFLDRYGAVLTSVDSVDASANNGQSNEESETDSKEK
Test: Inhibition of Bombyx mori trehalase
measuredAttribute: IC50 (nM)

compoundStructure: OC[C@H]1O[C@H](NC2=N[C@@H]3[C@H](O2)[C@@H](O)[C@H](O)[C@]3(O)CO)[C@H](O)[C@@H](O)[C@@H]1O
reportedMeasurement: 49

---

# reported IC50; entries follow
Molecular target: Uncharacterized protein (Sus scrofa, UniProt I3LIR5)
Sequence (I3LIR5 whole entry): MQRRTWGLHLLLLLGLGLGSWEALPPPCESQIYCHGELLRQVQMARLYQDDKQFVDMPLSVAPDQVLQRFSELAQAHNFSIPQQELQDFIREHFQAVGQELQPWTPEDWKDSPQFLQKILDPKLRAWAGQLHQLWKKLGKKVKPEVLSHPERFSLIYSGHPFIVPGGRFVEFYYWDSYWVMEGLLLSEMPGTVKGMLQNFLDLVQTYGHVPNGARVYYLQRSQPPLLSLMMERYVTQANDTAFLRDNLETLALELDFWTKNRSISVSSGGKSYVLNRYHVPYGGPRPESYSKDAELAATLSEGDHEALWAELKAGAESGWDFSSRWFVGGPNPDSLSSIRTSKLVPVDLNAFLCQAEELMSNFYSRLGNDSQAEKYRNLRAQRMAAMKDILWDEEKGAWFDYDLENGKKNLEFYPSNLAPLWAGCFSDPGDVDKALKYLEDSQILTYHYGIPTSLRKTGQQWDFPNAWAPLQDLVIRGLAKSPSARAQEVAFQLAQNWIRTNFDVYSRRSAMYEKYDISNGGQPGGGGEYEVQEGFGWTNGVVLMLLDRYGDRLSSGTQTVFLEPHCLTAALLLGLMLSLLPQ
Experiment: Inhibition of Sus scrofa (pig) trehalase using trehaloase as substrate incubated for 15 min prior to substrate addition measured after 1.5 hr by spectrophotometric analysis

compoundStructure: OCC1(CO)CS/C(=N\c2ccc(F)cc2)N1
IC50 / µM: 575
--
compoundStructure: OCC1(CO)CS/C(=N\c2ccc(F)c(Cl)c2)N1
IC50 / µM: 240
--
compoundStructure: OCC1(CO)CS/C(=N\c2ccc(F)c(F)c2F)N1
IC50 / µM: 708
--
compoundStructure: OCC1(CO)CO/C(=N\c2ccc(F)c(F)c2F)N1
IC50 / µM: 85.1
--
compoundStructure: OCC1(CO)CO/C(=N\c2ccccc2F)N1
IC50 / µM: 75.9
--
compoundStructure: OCC1(CO)CS/C(=N\c2ccccc2F)N1
IC50 / µM: 832
